inhibition at 25 µM: recorded values
Assay system: COX-2 (Homo sapiens)
Construct: purchased Beyotime S0168
Measurement description: Anti-COX-2 assay (COX-2 Inhibitor Screening Kit)
Type: biochemical
Test conditions: 25 μM, single replicates
Dear colleague, please return just the value in %, with no unit written.

Recorded results for 2 molecules are shown here.
INSERT INTO results (molecule, unit_descriptor, test_result) VALUES
  ('O=c1cc(-c2ccc(O)c(O)c2)oc2c(C3OCC(O)C(O)C3O)c(O)c(C3OC(CO)C(O)C(O)C3O)c(O)c12 (stereo not drawn)', '%', 71.9),
  ('C[C@@H]1O[C@@H](OC[C@H]2O[C@@H](Oc3c(-c4ccc(O)c(O)c4)oc4cc(O)cc(O)c4c3=O)[C@H](O)[C@@H](O)[C@@H]2O)[C@H](O)[C@H](O)[C@H]1O', '%', 78);

Answer with the recorded inhibition at 25 µM of O=c1cc(-c2ccc(O)c(O)c2)oc2cc(O)c(C3OC(CO)C(O)C(O)C3O)c(O)c12 [compound 18, Luteolin-6-C-β-D-glucoside] only. 74.8

----------
Assay system: COX-2 (Homo sapiens)
Construct: purchased Beyotime S0168
Sequence (P35354 18-604): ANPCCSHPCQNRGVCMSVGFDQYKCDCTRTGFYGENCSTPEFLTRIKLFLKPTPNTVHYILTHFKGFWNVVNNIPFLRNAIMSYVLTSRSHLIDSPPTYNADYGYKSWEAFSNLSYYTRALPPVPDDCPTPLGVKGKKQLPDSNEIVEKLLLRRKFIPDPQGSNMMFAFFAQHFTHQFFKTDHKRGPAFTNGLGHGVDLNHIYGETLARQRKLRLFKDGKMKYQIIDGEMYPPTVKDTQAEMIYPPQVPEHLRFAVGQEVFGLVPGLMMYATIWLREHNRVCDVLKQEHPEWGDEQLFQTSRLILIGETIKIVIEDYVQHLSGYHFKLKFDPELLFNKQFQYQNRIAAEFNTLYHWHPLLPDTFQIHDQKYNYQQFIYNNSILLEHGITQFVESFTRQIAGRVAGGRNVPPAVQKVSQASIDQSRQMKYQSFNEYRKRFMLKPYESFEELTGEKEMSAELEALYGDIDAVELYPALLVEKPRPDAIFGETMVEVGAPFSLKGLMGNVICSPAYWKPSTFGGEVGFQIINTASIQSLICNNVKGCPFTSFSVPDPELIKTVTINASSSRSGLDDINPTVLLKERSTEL
Measurement description: Anti-COX-2 assay (COX-2 Inhibitor Screening Kit)
Assay type: biochemical
Property name: COX-2 inhibition (in words)

Recorded results for 9 compounds are shown here.
INSERT INTO measurements (compound, assay_system, property_name, test_result) VALUES
  ('O=C(O)CC(=O)OCC1OC(Oc2c(-c3ccc(O)c(O)c3)oc3cc(O)cc(O)c3c2=O)C(O)C(O)C1O (stereo not shown) [compound 27, Quercetin 3-O-(6″-malonyl-glucoside)]', 'COX-2 (Homo sapiens)', 'COX-2 inhibition (in words)', 'great COX-2 inhibition'),
  ('O=c1c(O[C@@H]2O[C@H](CO)[C@@H](O)[C@H](O)[C@H]2O)c(-c2ccc(O)c(O)c2)oc2cc(O)cc(O)c12', 'COX-2 (Homo sapiens)', 'COX-2 inhibition (in words)', 'great COX-2 inhibition'),
  ('O=c1cc(-c2ccc(O)c(O)c2)oc2cc(O)c(C3OC(CO)C(O)C(O)C3O)c(O)c12 [compound 18, Luteolin-6-C-β-D-glucoside]', 'COX-2 (Homo sapiens)', 'COX-2 inhibition (in words)', 'great COX-2 inhibition'),
  ('O=c1c(OC2OC(CO)C(O)C(O)C2OC2OC(CO)C(O)C(O)C2O)c(-c2ccc(O)c(O)c2)oc2cc(O)cc(O)c12 (stereo not shown) [compound 16, Quercetin-3-O-sophoroside]', 'COX-2 (Homo sapiens)', 'COX-2 inhibition (in words)', 'great COX-2 inhibition'),
  ('O=c1cc(-c2ccc(O)cc2)oc2c(C3OC(CO)C(O)C(O)C3O)c(O)c(C3OC(CO)C(O)C(O)C3O)c(O)c12 (stereo not shown)', 'COX-2 (Homo sapiens)', 'COX-2 inhibition (in words)', 'no inhibitory effects'),
  ('O=c1cc(-c2ccc(O)c(O)c2)oc2c(C3OCC(O)C(O)C3O)c(O)c(C3OC(CO)C(O)C(O)C3O)c(O)c12 (stereo not shown)', 'COX-2 (Homo sapiens)', 'COX-2 inhibition (in words)', 'great COX-2 inhibition'),
  ('O=c1c(O[C@@H]2O[C@H](CO)[C@@H](O)[C@H](O)[C@H]2O)c(-c2ccc(O)cc2)oc2cc(O)cc(O)c12', 'COX-2 (Homo sapiens)', 'COX-2 inhibition (in words)', 'no inhibitory effects'),
  ('O=c1cc(-c2ccc(O)cc2)oc2c(C3OCC(O)C(O)C3O)c(O)c(C3OCC(O)C(O)C3O)c(O)c12 (stereo not shown)', 'COX-2 (Homo sapiens)', 'COX-2 inhibition (in words)', 'no inhibitory effects'),
  ('C[C@@H]1O[C@@H](OC[C@H]2O[C@@H](Oc3c(-c4ccc(O)c(O)c4)oc4cc(O)cc(O)c4c3=O)[C@H](O)[C@@H](O)[C@@H]2O)[C@H](O)[C@H](O)[C@H]1O', 'COX-2 (Homo sapiens)', 'COX-2 inhibition (in words)', 'great COX-2 inhibition');

Please find the next compound below.
Determine reported COX-2 inhibition (in words) for O=c1cc(-c2ccc(O)cc2)oc2c(C3OCC(O)C(O)C3O)c(O)c(C3OC(CO)C(O)C(O)C3O)c(O)c12 (stereo not shown) [compound 17, Schaftoside] ; test system: COX-2 (Homo sapiens). no inhibitory effects
